The values you see were collected from patent US20190358238A1.

Experiment: half-life of Drug 47661 in naive mice after IV injection
Type: in vivo, mouse
Conditions: mouse, blood, 5 mg/kg IV, read-out: volume of distribution

{"input.smiles": "CN(CC(=O)c1c(-c2ccccc2)[nH]c2ccccc12)CC(=O)N1CCOCC1", "Vd / L/kg": 1.07}

---

Assay: half-life of Drug 47661 in naive mice after IV injection
Type: in vivo, mouse
Settings: mouse, blood, 5 mg/kg IV, read-out: clearance rate (converted)
reported.metric: clearance (mL/min/kg)

{"input.smiles": "CN(CC(=O)c1c(-c2ccccc2)[nH]c2ccccc12)CC(=O)N1CCOCC1", "reported.metric": "clearance", "units.symbol": "mL/min/kg", "endpoint.result": 75}
